biological target: MC4R (Homo sapiens); construct: expressed in transfected cells; host or cells: HEK (Human Embryonic Kidney) permanent expression cell line HEK MC4R-Luc, co-expressing CRE-luciferase; test: MCR agonistic activity (luciferase assay / cAMP accumulation assay) on MC4R; type: cell-based; settings: specific activities of representative compounds; HEK cell lines expressing MC4R; method A or B, not said which; read-out: EC50
pEC50: −log10 of the molar value.
property-name: pEC50

Worked examples follow.
Ask: Reported pEC50 for CN1CCN(C(=O)[C@@H]2C[C@H](N(C(=O)C(C)(C)C)C3CCC(F)(F)CC3)CN2C(=O)[C@@H]2CN(C(C)(C)C)C[C@H]2c2ccc(Cl)cc2)CC1 [Example 26] : what is it?
Reply: 8.22

Ask: // same read-out, input: CN1CCN(C(=O)[C@@H]2C[C@H](N(C(=O)C(C)(C)CO)C3CCC(C)(C)CC3)CN2C(=O)[C@@H]2CN(C(C)(C)C)C[C@H]2c2ccc(Cl)cc2)CC1 [Example 4]
Reply: 9.70

P: CC(=O)N(C1CCC(C)(C)CC1)[C@H]1C[C@@H](C(=O)N2CCN(C)CC2)N(C(=O)[C@@H]2CN(C(C)(C)C)C[C@H]2c2ccc(Cl)cc2)C1 [Example 1]
Q: CC(=O)N(C1CCC(C)(C)CC1)[C@H]1C[C@@H](C(=O)N2CCNCC2)N(C(=O)[C@@H]2CN(C(C)(C)C)C[C@H]2c2ccc(F)cc2F)C1 [Example 2]
Ask: # compare pEC50 for P vs Q ; return the one with the smaller value State your choice using its label.
Reply: P
(P: 8.00, Q: 8.22)

1: CN1CCN(C(=O)[C@@H]2C[C@H](N(C(=O)[C@@H]3CCCO3)C3CCC(C)(C)CC3)CN2C(=O)[C@@H]2CN(C(C)(C)C)C[C@H]2c2ccc(Cl)cc2)CC1 [Example 3]
2: CN1CCN(C(=O)[C@@H]2C[C@H](N(C(=O)[C@@H]3CCCO3)C3CCC(C)(C)CC3)CN2C(=O)[C@@H]2CN(c3cccnn3)C[C@H]2c2ccc(F)cc2F)CC1 [Example 45]
Ask: Please choose the item with the lower pEC50 value from this pair: 1 and 2 Write down the label of the entry you select.
Reply: 2
(2: 8.10, 1: 8.52)

---

biological target: MC4R (Homo sapiens, UniProt P32245); construct: expressed in transfected cells; host or cells: HEK (Human Embryonic Kidney) permanent expression cell line HEK MC4R-Luc, co-expressing CRE-luciferase; experiment: MCR agonistic activity (luciferase assay / cAMP accumulation assay) on MC4R; format: cell-based; conditions: HEK cell lines expressing MC4R; method A (CRE-luciferase) or B (cAMP accumulation), not said which; read-out: EC50 value, agonistic activity to MC4R (range per group of Examples)
Sequence (P32245 whole entry, species assumed): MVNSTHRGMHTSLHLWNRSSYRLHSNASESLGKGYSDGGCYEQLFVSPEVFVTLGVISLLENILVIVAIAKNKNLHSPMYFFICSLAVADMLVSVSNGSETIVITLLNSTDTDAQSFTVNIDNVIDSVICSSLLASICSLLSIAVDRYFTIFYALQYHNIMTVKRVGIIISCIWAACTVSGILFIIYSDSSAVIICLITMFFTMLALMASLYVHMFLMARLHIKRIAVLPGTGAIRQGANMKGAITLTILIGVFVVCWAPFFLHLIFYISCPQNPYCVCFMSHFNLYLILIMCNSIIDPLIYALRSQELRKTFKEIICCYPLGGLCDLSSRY
EC50 reference

Reference set (4 entries):
Ask: What does the record list as EC50 for CN1CCN(C(=O)[C@H]2C[C@H](N(C(=O)[C@@H]3CCCO3)[C@H]3CC[C@@H](C)CC3)CN2C(=O)[C@@H]2CN(C(C)(C)C)C[C@H]2c2ccc(Cl)cc2)CC1 (relative stereo) ?
Reply: 0.0001 to 0.01 µM

Ask: Can you handle CC(C)N1CCN(C(=O)[C@H]2C[C@H](N(C(=O)[C@@H]3CCCO3)C3CCC(C)(C)CC3)CN2C(=O)[C@@H]2CN(C3CCOCC3)C[C@H]2c2ccc(F)cc2F)CC1 next?
Reply: 0.0001 to 0.01 µM

Ask: Queued: CC(C)C(=O)N(c1ccc(F)cc1F)[C@H]1C[C@@H](C(=O)N2CCNCC2)N(C(=O)[C@@H]2CN(C(C)(C)C)C[C@H]2c2ccc(Cl)cc2)C1
Reply: 0.0001 to 0.01 µM

Ask: Also, CC(=O)N(C1CCC(C)(C)CC1)[C@H]1C[C@@H](C(=O)N2CCN(C(C)C)CC2)N(C(=O)[C@@H]2CN(C(C)(C)C)C[C@H]2c2ccc(F)cc2F)C1 please.
Reply: 0.01 to 0.1 µM

More entries:
Ask: Please give the measured EC50 for this molecule: CN1CCN(C(=O)[C@@H]2C[C@H](N(C(=O)C(C)(C)C)C3CCC(F)(F)CC3)CN2C(=O)[C@@H]2CN(C(C)(C)C)C[C@H]2c2ccc(Cl)cc2)CC1
Reply: 0.0001 to 0.01 µM

---

target: MC4R (Homo sapiens); construct: expressed in transfected cells; host or cells: HEK (Human Embryonic Kidney) permanent expression cell line HEK MC4R-Luc, co-expressing CRE-luciferase; assay: MCR agonistic activity (luciferase assay / cAMP accumulation assay) on MC4R; assay type: cell-based; conditions: HEK cell lines expressing MC4R; method A (CRE-luciferase) or B (cAMP accumulation), not said which; read-out: EC50 value, agonistic activity to MC4R (range per group of Examples)
pEC50: −log10 of the molar value.
property-name: pEC50

Ask: What pEC50 appears in the records for this compound with MC4R (Homo sapiens)? CN1CCN(C(=O)[C@@H]2C[C@H](N(C(=O)C(C)(C)CO)[C@H]3CC[C@@H](C)CC3)CN2C(=O)[C@@H]2CN(C(C)(C)C)C[C@H]2c2ccc(Cl)cc2)CC1
Reply: 8.00 to 10.00

New cases:
Ask: Short answer please: pEC50, MC4R (Homo sapiens), entry CN1CCN(C(=O)[C@@H]2C[C@H](N(C(=O)[C@@H]3CCCO3)[C@H]3CC[C@@H](C)CC3)CN2C(=O)[C@@H]2CN(C(C)(C)C)C[C@H]2c2ccc(Cl)cc2)CC1
Reply: 8.00 to 10.00

Ask: CC(=O)N(C1CCC(C)(C)CC1)[C@H]1C[C@@H](C(=O)N2CCN(C(C)C)CC2)N(C(=O)[C@@H]2CN(C(C)(C)C)C[C@H]2c2ccc(Cl)cc2)C1 , same question.
Reply: 8.00 to 10.00

Ask: Next: CN1CCN(C(=O)[C@@H]2C[C@H](N(C(=O)[C@@H]3CCCO3)[C@H]3CC[C@@H](C)CC3)CN2C(=O)[C@H]2CN(C(C)(C)C)C[C@H]2c2ccc(Cl)cc2)CC1
Reply: 7.00 to 8.00

Ask: Also CN1CCN(C(=O)[C@@H]2C[C@H](N(C(=O)C(C)(C)C)C3CCC(C)(C)CC3)CN2C(=O)[C@@H]2CN(c3ccccn3)C[C@H]2c2ccc(Cl)cc2)CC1 ?
Reply: 7.00 to 8.00

Ask: Do the same for CN1CCN(C(=O)[C@@H]2C[C@H](N(C(=O)[C@@H]3CCCO3)C3CCC(C)(C)CC3)CN2C(=O)[C@@H]2CN(c3ccccn3)C[C@H]2c2ccc(Cl)cc2)CC1 please
Reply: 8.00 to 10.00

Ask: And CN1CCN(C(=O)[C@@H]2C[C@H](N(C(=O)C(C)(C)C)C3CCC(C)(C)CC3)CN2C(=O)[C@@H]2CN(c3nccs3)C[C@H]2c2ccc(Cl)cc2)CC1 ?
Reply: 6.00 to 7.00

Ask: Subsequent entry: CN1CCN(C(=O)[C@@H]2C[C@H](N(C(=O)[C@@H]3CCCO3)[C@H]3CC[C@@H](C)CC3)CN2C(=O)[C@@H]2CN(c3ccccc3)C[C@H]2c2ccc(Cl)cc2)CC1
Reply: 7.00 to 8.00

Ask: Next entry: CN1CCN(C(=O)[C@@H]2C[C@H](N(C(=O)[C@@H]3CCCO3)[C@H]3CC[C@@H](C)CC3)CN2C(=O)[C@@H]2CN(c3ccccn3)C[C@H]2c2ccc(F)cc2F)CC1
Reply: 8.00 to 10.00

Ask: Again, but for CN1CCN(C(=O)[C@@H]2C[C@@H](N(C(=O)[C@@H]3CCCO3)[C@H]3CC[C@@H](C)CC3)CN2C(=O)[C@@H]2CN(C(C)(C)C)C[C@H]2c2ccc(Cl)cc2)CC1
Reply: 6.00 to 7.00

---

Target: MC4R (Homo sapiens, UniProt P32245)
Construct: expressed in transfected cells; host or cells: HEK (Human Embryonic Kidney) permanent expression cell line HEK MC4R-Luc, co-expressing CRE-luciferase
Assay: MCR agonistic activity (luciferase assay / cAMP accumulation assay) on MC4R
Type: cell-based
Settings: HEK cell lines expressing MC4R; method A (CRE-luciferase) or B (cAMP accumulation), not said which; read-out: EC50 value, agonistic activity to MC4R (range per group of Examples)
Protocol: Physiological activity of the compounds of the present invention was assessed by measuring agonistic activity as well as binding activity for melanocortin receptors (MCR) according to methods A and B explained as follows. As one of the methods to measure MCR agonistic activity of the compound according to the present invention, the expression level of a marker gene (for example, luciferase) which increases proportionally according to the increase of cAMP content in the cell, was measured. […]
pEC50: −log10 of the molar value.
property-name: pEC50

Below are worked cases with known answers.
Ask: Could you share which pEC50 value was measured for CC(C)N1CCN(C(=O)[C@@H]2C[C@H](N(C(=O)[C@@H]3CCCO3)C3CCC(C)(C)CC3)CN2C(=O)[C@@H]2CN(C3CCOCC3)C[C@H]2c2ccc(F)cc2F)CC1 [Example 47] ?
Reply: 7.00 to 8.00

Ask: Next: CN1CCN(C(=O)[C@@H]2C[C@H](N(C(=O)[C@@H]3CCCO3)[C@H]3CC[C@@H](C)CC3)CN2C(=O)[C@@H]2CN(C(C)(C)C)C[C@@H]2c2ccc(Cl)cc2)CC1 [Example 75]
Reply: 5.00 to 6.00

Ask: Quick one: CN1CCN(C(=O)[C@@H]2C[C@H](N(C(=O)C(C)(C)C)[C@H]3CC[C@@H](C)CC3)CN2C(=O)[C@@H]2CN(C3CCOCC3)C[C@H]2c2ccc(F)cc2F)CC1 [Example 53]
Reply: 8.00 to 10.00

Ask: What about CN1CCN(C(=O)[C@@H]2C[C@H](N(C(=O)[C@@H]3CCCO3)C3CCC(C)(C)CC3)CN2C(=O)[C@@H]2CN(c3cccnn3)C[C@H]2c2ccc(F)cc2F)CC1 [Example 45] ?
Reply: 8.00 to 10.00

Ask: How about this compound: CCN1CCN(C(=O)[C@@H]2C[C@H](N(C(C)=O)C3CCC(C)(C)CC3)CN2C(=O)[C@@H]2CN(C(C)(C)C)C[C@H]2c2ccc(Cl)cc2)CC1 [Example 8]
Reply: 8.00 to 10.00

***
Ask: Bench note: what pEC50 did CC(=O)N([C@H]1C[C@H](C(=O)N2CCN(C(C)C)CC2)N(C(=O)[C@@H]2CN(C(C)(C)C)C[C@H]2c2ccc(Cl)cc2)C1)[C@H]1CC[C@@H](C)CC1 [Example 39] show?
Reply: 8.00 to 10.00

Ask: Note, next up: CN1CCN(C(=O)[C@H]2C[C@H](N(C(=O)[C@@H]3CCCO3)C3CCC(C)(C)CC3)CN2C(=O)[C@@H]2CN(C3CC3)C[C@H]2c2ccc(Cl)cc2)CC1 [Example 55]
Reply: 7.00 to 8.00

Ask: Can you check CN1CCN(C(=O)[C@@H]2C[C@H](N(C(=O)[C@@H]3CCCO3)C3CCC(C)(C)CC3)CN2C(=O)[C@@H]2CN(C(C)(C)C)C[C@H]2c2ccc(F)cc2F)CC1 [Example 14] next?
Reply: 8.00 to 10.00

Ask: Check CCN1CCN(C(=O)[C@@H]2C[C@H](N(C(C)=O)C3CCC(F)(F)CC3)CN2C(=O)[C@@H]2CN(C(C)(C)C)C[C@H]2c2ccc(Cl)cc2)CC1 [Example 28] too.
Reply: 6.00 to 7.00

Ask: CC1CCC(N(C(=O)C2CCCO2)C2CC(C(=O)N3CCN(C)CC3)N(C(=O)C3CN(c4cccnn4)CC3c3ccc(F)cc3F)C2)CC1 (centres unmarked) [Example 66] ?
Reply: 8.00 to 10.00

Ask: Now this one: CC(=O)N([C@H]1C[C@H](C(=O)N2CCN(C)CC2)N(C(=O)[C@@H]2CN(C(C)(C)C)C[C@H]2c2ccc(Cl)cc2)C1)[C@H]1CC[C@@H](C)CC1 [Example 37]
Reply: 8.00 to 10.00
